# Test system: OVCAR-5 ovarian
# measurementNotes: NCI-60 one-dose screen, 48 h (100 = growth as untreated, 0 = no growth, -100 = all killed)
# conditionDescription: 10 µM unless noted
Compounds without any hit were thinned out: in the full panel of roughly 83,000, 20% have a hit.

compound	unitAbbreviation	growth
CCn1c(-c2cc3c([nH]c4ccccc43)c(-c3cccc(O)c3)n2)n[nH]c1=S	%	98.1
Cc1nc2c(c(=O)[nH]1)C(c1ccccc1)c1ccc3ccccc3c1O2 (stereo not drawn)	%	87.2
O=C(CCCCCCN1CC(=O)N2[C@H](c3ccc(Cl)cc3)c3[nH]c4ccccc4c3C[C@@H]2C1=O)NO	%	59.5

----------
# Tested on: HT29 colon
# measurementNotes: NCI-60 one-dose screen, 48 h (100 = growth as untreated, 0 = no growth, -100 = all killed)
# conditionDescription: 10 µM unless noted
The panel holds about 83,000 compounds, 20% with a hit somewhere; the sample as a whole holds those more often.
Quick reference: growth of the listed items.

smilesCode	growth (%)
Clc1ccc(-c2cc(-c3ccccc3)nc(NCCNc3ccnc4cc(Cl)ccc34)n2)cc1	-16.2
CN(CCCNC(=O)CCOCCOCCOCCNC(=O)Cc1ccc2ccc3cccc4ccc1c2c34)CCCNc1cc(-c2ccc3ccccc3c2)nc2ccccc12	-87.6
CCN1CCN(c2cc(C)nc(N(CCNc3ccnc4cc(Cl)ccc34)Cc3ccc4c(c3)OCO4)n2)CC1	-37.9

----------
Quick reference: growth of the listed items.
# System: IGROV1 ovarian
# measurementNotes: NCI-60 one-dose screen, 48 h (100 = growth as untreated, 0 = no growth, -100 = all killed)
# conditionDescription: 10 µM unless noted
About 83,000 compounds went through this panel and 20% of them were active in at least one assay; those are over-represented in the sample as a whole.
endpoint: growth (%)

molecule	endpoint	recordedMeasurement
Cc1ccc(CNc2c3ccccc3nc3ccccc23)cc1	growth	19.4
NS(=O)(=O)c1ccc(C(=O)NN2C(=O)c3c(Br)c(Br)c(Br)c(Br)c3C2=O)cc1	growth	104
COc1ccc2c(c1)c(/C(O)=C1\COC(=O)C1=O)cn2Cc1ccc(F)cc1	growth	44
COc1cccc(C(=O)NNc2nc(Cl)nc(Cl)n2)c1	growth	100
C=Cc1cnc(Nc2ccc(OC)cc2)nc1NCCCNC(=O)C1CCC1	growth	44.6
CN(C)CCCC1(c2ccc(F)cc2)OCc2cc(-c3ccc4cc[nH]c4c3)ccc21 (stereo not drawn)	growth	23
C#CCO[C@H]1CC(CC#C)(CC#C)C(=O)[C@@H]2[C@H]1[C@H]1C[C@@H]3[C@@]4(C)CCC[C@@](C)(C(=O)OC)[C@@H]4CC[C@@]23C=C1C(C)C	growth	-64.2
O=C(CCCCCNC(=O)c1cc(=O)c(O)co1)Nc1ccccc1	growth	106
CC(C)N1C(=O)/C(=c2\sc3n(c2=O)C2C(NN=3)N(C)C(=O)N2C)c2ccccc21 (stereo not drawn)	growth	53.2
O=C1Nc2c(C(=O)O)cccc2/C1=N/c1n[nH]c(=S)s1	growth	83
Cc1ccc(-c2csc(NC(=O)c3ccccc3CN3C(=O)c4ccccc4C3=O)n2)cc1	growth	96.5
NC1(CO)COC(c2ccccc2)OC1 (stereo not drawn)	growth	104
CCOC(=O)c1c(C)nc2ccccc2c1/C=C/c1ccccc1	growth	75
CCOC(=O)c1ccccc1-c1c2ccc(=[N+](C)C)cc-2oc2cc(N(C)C)ccc12	growth	18.4
CC(C)(C)n1cc(-c2ccnc(NCCCNS(=O)(=O)c3ccc(C(F)(F)F)cc3)c2)c(-c2cccc(F)c2)n1	growth	84.1
CCOC(=O)c1c(C)nc2c(c1N)CC(=O)N2Cc1ccc(OC)cc1	growth	46.4
CCN1C(=O)N(CC)C2C1NN=c1s/c(=C\c3ccc[nH]3)c(=O)n12 (stereo not drawn)	growth	28.8
Cc1ccc2c(-c3nnc(N)s3)cc(=O)oc2c1C	growth	98.5
COc1ccc(/C=C(/C(=O)n2cnnn2)c2cc(OC)c(OC)c(OC)c2)cc1	growth	41.4
CCc1n(Cc2ccc3ccccc3n2)cc[n+]1Cc1ccc2ccccc2n1	growth	30
CCOC(=O)CC1CSC(Nc2ccccc2)=N1 (stereo not drawn)	growth	103
CNC1=C([N+](=O)[O-])C(c2ccc(OC)cc2)C(C#N)=C(c2cccs2)O1 (stereo not drawn)	growth	108
CN(C)S(=O)(=O)Oc1ccc(-c2sc3cc(OS(=O)(=O)N(C)C)ccc3c2C(=O)c2ccc(OCCN3CCCCC3)cc2)cc1	growth	81

Values from PubChem BioAssay (NCI)
